Listed here: items and their measured % viability under drug.
System: SK-BR-3
assay.info: % viability under drug (72 h drug + 72 h recovery), miRNA mimic relative to NTC in DMSO; higher = more surviving cells
condition: drug used in drug arm: lapatinib 1 uM; treatment: drug
quantity.kind: % viability under drug (%)

sequence.input	quantitative.readout
AAGUGCCGCCAUCUUUUGAGUGU	8.32
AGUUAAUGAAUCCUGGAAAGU	19.2
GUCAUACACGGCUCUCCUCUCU	12.8

* * *

The entries below are paired with their reported % viability under drug.
System: M14
assay.info: % viability under drug (72 h drug + 72 h recovery), miRNA mimic relative to NTC in DMSO; higher = more surviving cells
condition: drug used in drug arm: AZ628 1 uM; treatment: drug

sequence.input	endpoint.unit	% viability under drug
AAAAGUAAUUGCGGAUUUUGCC	%	18
AACGCCAUUAUCACACUAAAUA	%	12.8
GAGCCAGUUGGACAGGAGC	%	6.67

* * *

List of % viability in DMSO values.
System: COLO-205
assay.info: % viability in DMSO, miRNA mimic relative to NTC in DMSO; higher = less cytotoxic
condition: drug used in drug arm: AZ628 1 uM; treatment: DMSO

sequence.input	system.name	% viability in DMSO (%)
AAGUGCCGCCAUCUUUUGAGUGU	COLO-205	101
UCUACAAAGGAAAGCGCUUUCU	COLO-205	109
AAAAGUACUUGCGGAUUUUGCU	COLO-205	101
UGUCAGUUUGUCAAAUACCCCA	COLO-205	98.3
ACAGUAGAGGGAGGAAUCGCAG	COLO-205	94
UAGGUAGUUUCAUGUUGUUGGG	COLO-205	93.2
GAAUGUUGCUCGGUGAACCCCU	COLO-205	102
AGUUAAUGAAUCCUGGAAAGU	COLO-205	102
GCGAGGACCCCUCGGGGUCUGAC	COLO-205	105
CAAAAGUAAUUGUGGAUUUUGU	COLO-205	106
GAGCCAGUUGGACAGGAGC	COLO-205	101
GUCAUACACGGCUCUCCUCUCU	COLO-205	106

* * *

Tested on: HCC-1954
assay.info: % viability in DMSO, miRNA mimic relative to NTC in DMSO; higher = less cytotoxic
condition: drug used in drug arm: GDC-0980 2.5 uM; treatment: DMSO

sequence.input	% viability in DMSO, %
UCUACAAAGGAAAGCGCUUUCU	68.8
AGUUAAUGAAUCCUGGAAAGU	48.3
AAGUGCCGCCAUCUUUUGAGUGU	11.8
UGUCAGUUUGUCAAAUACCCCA	31.9
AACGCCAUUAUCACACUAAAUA	81.2
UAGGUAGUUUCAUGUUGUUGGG	57.1
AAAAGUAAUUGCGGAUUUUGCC	117

* * *

cell count fold change with erlotinib values, listed per item
System: PC9
assay.info: cell count fold change with erlotinib, miRNA mimic vs non-targeting control (log2 ratio); higher = more drug-tolerant survivors than NTC
condition: erlotinib 1 µM; 72 h drug + 72 h drug-free recovery; perturbation: miRNA mimic

sequence.input	cell count fold change with erlotinib
UAGAUAAAAUAUUGGUACCUG	-1.41
UGUAGUGUUUCCUACUUUAUGGA	-4.91
AUGUAGGGCUAAAAGCCAUGGG	-1.51
AAAGUGCUUCCUUUUAGAGGG	-0.225
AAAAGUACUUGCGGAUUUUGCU	-3.1
AAAAGUAAUUGUGGUUUUUGCC	0.561
UCCCUGUCCUCCAGGAGCUCACG	-1.84
UGGAGGAGAAGGAAGGUGAUG	0.943
UAGGCAGUGUCAUUAGCUGAUUG	-1.83
AACAUAGAGGAAAUUCCACGU	-1.33
GAAAGCGCUUCUCUUUAGAGG	-0.525
UGGAGAGAAAGGCAGUUCCUGA	-1.98
AGCCUGGAAGCUGGAGCCUGCAGU	-0.167
GGGGAGCUGUGGAAGCAGUA	-2.06
UAGCAGCGGGAACAGUUCUGCAG	-3.68
AUUCCUAGAAAUUGUUCAUA	0.458
UUUCCAUAGGUGAUGAGUCAC	-0.48
UAAGGCACGCGGUGAAUGCC	0.453
UAGGACACAUGGUCUACUUCU	-1.02
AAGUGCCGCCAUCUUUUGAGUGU	-4.45
GGGCGACAAAGCAAGACUCUUUCUU	-2.38
AAUCAUACAGGGACAUCCAGUU	-1.33
CUCAGUAGCCAGUGUAGAUCCU	-4.13
AGGGUGUUUCUCUCAUCUCU	-1.29
AGUCAUUGGAGGGUUUGAGCAG	-3.38
AUGCUGACAUAUUUACUAGAGG	-1.82
CAGUUAUCACAGUGCUGAUGCU	-1.92
UGACAACUAUGGAUGAGCUCU	-1.88
GUUGGAGGAUGAAAGUACGGAGUGAU	-2.24
CAGUGCAAUGUUAAAAGGGCAU	-3.02
CAAUGUUUCCACAGUGCAUCAC	-2.66
CUACAAAGGGAAGCACUUUCUC	-2.75
UUGCAGCUGCCUGGGAGUGACUUC	-2.6
CUUAUGCAAGAUUCCCUUCUAC	-1.68
UGAGAACCACGUCUGCUCUGAG	-1.74
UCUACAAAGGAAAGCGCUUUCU	0.22
ACGGAUGUUUGAGCAUGUGCUA	-2.45
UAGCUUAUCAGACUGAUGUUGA	-2.58
CGUGUAUUUGACAAGCUGAGUU	-5.21
AAAAGCUGGGUUGAGAGGGCGA	-2.14
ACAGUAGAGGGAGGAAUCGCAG	-3.56
UGCUUCCUUUCAGAGGGU	-3.13
GAAAGUGCUUCCUUUUAGAGGC	-0.077
UACCCAGAGCAUGCAGUGUGAA	-2.53
UUUGUUCGUUCGGCUCGCGUGA	-4.05
CAACGGAAUCCCAAAAGCAGCUG	-1.27
ACGGGUUAGGCUCUUGGGAGCU	-2.04
UACUUGGAAAGGCAUCAGUUG	-0.495
AGGCAGCGGGGUGUAGUGGAUA	1.05
GAAGUGCUUCGAUUUUGGGGUGU	-0.122

Origin of the recorded values: the supplement of paper PMC4976141
